Origin of measurements: patent US9790252B2

Target: UniProtKB Q8IXJ6
Sequence (Q8IXJ6 1-389): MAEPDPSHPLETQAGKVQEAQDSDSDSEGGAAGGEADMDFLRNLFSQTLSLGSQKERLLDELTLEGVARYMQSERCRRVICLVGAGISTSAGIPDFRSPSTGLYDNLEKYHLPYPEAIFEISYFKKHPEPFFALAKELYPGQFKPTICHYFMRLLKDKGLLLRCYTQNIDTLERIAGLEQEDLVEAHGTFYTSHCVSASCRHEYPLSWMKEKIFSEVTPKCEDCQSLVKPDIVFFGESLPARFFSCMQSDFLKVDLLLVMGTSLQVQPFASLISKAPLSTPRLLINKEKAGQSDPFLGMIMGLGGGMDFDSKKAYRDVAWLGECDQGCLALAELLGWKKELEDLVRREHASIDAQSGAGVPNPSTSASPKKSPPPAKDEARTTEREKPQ
readout: Ki (mM)

NC(=O)c1ccc[n+]([C@@H]2O[C@H](CO)C(O)C2F)c1 (some centres unmarked) [ara-F-NR]	2.3
NC(=O)c1ccc[n+]([C@@H]2O[C@H](CO)C(O)[C@@H]2F)c1 (some centres unmarked) [ribo-F-NR]	1.73

====

Sequence of the target: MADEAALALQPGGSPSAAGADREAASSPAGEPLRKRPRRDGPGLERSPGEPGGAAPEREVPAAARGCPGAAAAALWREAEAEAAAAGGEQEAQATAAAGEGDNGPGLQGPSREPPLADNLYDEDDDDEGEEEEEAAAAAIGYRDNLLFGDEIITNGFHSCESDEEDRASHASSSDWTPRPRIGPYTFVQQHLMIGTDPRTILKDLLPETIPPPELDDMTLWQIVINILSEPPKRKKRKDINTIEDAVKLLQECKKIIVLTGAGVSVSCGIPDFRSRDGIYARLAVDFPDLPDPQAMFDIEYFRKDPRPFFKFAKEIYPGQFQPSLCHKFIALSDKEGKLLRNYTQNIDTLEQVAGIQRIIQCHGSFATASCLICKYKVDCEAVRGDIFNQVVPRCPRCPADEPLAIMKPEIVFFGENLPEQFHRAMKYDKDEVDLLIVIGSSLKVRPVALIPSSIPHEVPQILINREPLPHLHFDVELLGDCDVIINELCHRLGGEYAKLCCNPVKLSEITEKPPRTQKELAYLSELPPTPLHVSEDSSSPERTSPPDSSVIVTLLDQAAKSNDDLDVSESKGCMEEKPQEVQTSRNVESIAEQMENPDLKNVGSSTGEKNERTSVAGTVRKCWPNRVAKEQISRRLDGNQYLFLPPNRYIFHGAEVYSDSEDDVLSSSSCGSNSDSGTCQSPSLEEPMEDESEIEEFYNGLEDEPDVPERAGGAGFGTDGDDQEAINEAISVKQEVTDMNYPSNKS
readout: Ki (µM)

P. NC(=O)c1ccc[n+]([C@@H]2O[C@H](COP(=O)([O-])O)C(O)C2(F)F)c1 (stereo partly drawn)
Q. NC(=O)c1ccc[n+]([C@@H]2O[C@H](CO)C(O)C2(Cl)Cl)c1 (stereo partly drawn)
R. NC(=O)c1ccc[n+]([C@@H]2O[C@H](COP(=O)([O-])OP(=O)(O)OC[C@H]3O[C@@H](n4cnc5c(N)ncnc54)[C@H](O)[C@@H]3O)[C@@H](O)C2(F)F)c1
sort_by: Ki; order: ascending; scope: items listed above The labels, placed in the requested order, form the answer. P, R, Q
(P: 18 µM, R: 60 µM, Q: 780 µM)

====

test system: Neuro2A cells; experiment: Toxicity to Neuro2A cells (MTT); assay type: cell-based; conditions: 500 μM, 12 hours, MTT 1.5 hours, 570 nm
Each record here notes measured 500 μM absorbance.
Give the figure only, with no unit attached.

Consider the following illustrative entries.
NC(=O)c1ccc[n+]([C@@H]2O[C@H](COP(=O)([O-])O)C(O)C2F)c1 (some centres unmarked) [ara-F-NMN]	0.0143
NC(=O)c1ccc[n+]([C@@H]2O[C@H](COP(=O)([O-])OP(=O)(O)OC[C@H]3O[C@@H](n4cnc5c(N)ncnc54)[C@H](O)[C@@H]3O)[C@@H](O)C2(F)F)c1 [gem-diF-NAD, 2′-deoxy-2′,2′-difluoro-NAD^+]	1.1916
NC(=O)c1ccc[n+]([C@@H]2O[C@H](CO)C(O)C2F)c1 (some centres unmarked) [ara-F-NR]	2.0666
NC(=O)c1ccc[n+]([C@@H]2O[C@H](COP(=O)([O-])O)C(O)C2F)c1 (some centres unmarked) [ribo-F-NMN]	1.7872
NC(=O)c1ccc[n+]([C@@H]2O[C@H](COP(=O)([O-])O)C(O)C2(F)F)c1 (some centres unmarked) [gem-diF-NMN]	0.0217

Returns the measured 500 μM absorbance for the input compound. Input: NC(=O)c1ccc[n+]([C@@H]2O[C@H](COP(=O)([O-])OP(=O)(O)OC[C@H]3O[C@@H](n4cnc5c(N)ncnc54)[C@H](O)[C@@H]3O)[C@@H](O)[C@@H]2F)c1 [ara-F-NAD, 2′-deoxy-2′-fluoro-arabino-NAD^+] 1.7012

Returns the measured 500 μM absorbance for the input compound. Input: NC(=O)c1ccc[n+]([C@@H]2O[C@H](CO)[C@@H](O)C2(F)F)c1 [gem-diF-NR] 0.5374

Returns the measured 500 μM absorbance for the input compound. Input: NC(=O)c1ccc[n+]([C@@H]2O[C@H](CO)C(O)[C@@H]2F)c1 (some centres unmarked) [ribo-F-NR] 0.8391

====

test system: HEK293 cells; test: Toxicity to HEK293 cells (MTT); type: cell-based; details: Homo sapiens, HEK293, HEK293; 2′-deoxy-2′-chloro-nucleosides
readout: pEC50
Units for pEC50: none; it is -log10 of a concentration expressed in mol/L.

Returns the measured pEC50 for the input compound. Input: NC(=O)c1ccc[n+]([C@@H]2O[C@H](CO)C(O)C2Cl)c1 (stereo partly shown) 5.30

====

test system: Neuro2A cells; test: Toxicity to Neuro2A cells (MTT); format: cell-based; settings: 100 μM, 12 hours, control = 1
readout: 100 μM relative viability
Give the figure only, with no unit attached.

NC(=O)c1ccc[n+]([C@@H]2O[C@H](COP(=O)([O-])O)C(O)C2(F)F)c1 (some centres unmarked)	0.443

Returns the measured 100 μM relative viability for the input molecule. Input: NC(=O)c1ccc[n+]([C@@H]2O[C@H](CO)[C@@H](O)C2(F)F)c1 0.338

Returns the measured 100 μM relative viability for the input molecule. Input: NC(=O)c1ccc[n+]([C@@H]2O[C@H](COP(=O)([O-])OP(=O)(O)OC[C@H]3O[C@@H](n4cnc5c(N)ncnc54)[C@H](O)[C@@H]3O)[C@@H](O)C2(F)F)c1 0.648

====

system: Neuro2A cells; assay: Toxicity to Neuro2A cells (MTT); type: cell-based; details: 100 μM, 12 hours, MTT 1.5 hours, 570 nm
Each record here notes measured 100 μM absorbance.
Give the figure only, with no unit attached.

Consider the following illustrative entries.
NC(=O)c1ccc[n+]([C@@H]2O[C@H](COP(=O)([O-])OP(=O)(O)OC[C@H]3O[C@@H](n4cnc5c(N)ncnc54)[C@H](O)[C@@H]3O)[C@@H](O)C2(F)F)c1 [gem-diF-NAD, 2′-deoxy-2′,2′-difluoro-NAD^+]	1.5765
NC(=O)c1ccc[n+]([C@@H]2O[C@H](COP(=O)([O-])O)C(O)C2F)c1 (some centres unmarked) [ara-F-NMN]	2.126
NC(=O)c1ccc[n+]([C@@H]2O[C@H](CO)[C@@H](O)C2(F)F)c1 [gem-diF-NR]	0.8234
NC(=O)c1ccc[n+]([C@@H]2O[C@H](CO)C(O)C2F)c1 (some centres unmarked) [ara-F-NR]	2.0227
NC(=O)c1ccc[n+]([C@@H]2O[C@H](COP(=O)([O-])OP(=O)(O)OC[C@H]3O[C@@H](n4cnc5c(N)ncnc54)[C@H](O)[C@@H]3O)[C@@H](O)[C@@H]2F)c1 [ara-F-NAD, 2′-deoxy-2′-fluoro-arabino-NAD^+]	2.2482

Report 100 μM absorbance for NC(=O)c1ccc[n+]([C@@H]2O[C@H](CO)C(O)[C@@H]2F)c1 (some centres unmarked) [ribo-F-NR] tested on Neuro2A cells. 1.8769

Report 100 μM absorbance for NC(=O)c1ccc[n+]([C@@H]2O[C@H](COP(=O)([O-])O)C(O)C2(F)F)c1 (some centres unmarked) [gem-diF-NMN] tested on Neuro2A cells. 1.0774

Report 100 μM absorbance for NC(=O)c1ccc[n+]([C@@H]2O[C@H](COP(=O)([O-])O)C(O)C2F)c1 (some centres unmarked) [ribo-F-NMN] tested on Neuro2A cells. 2.2023

====

tested on: HEK293 cells; assay: Toxicity to HEK293 cells (MTT); format: cell-based; details: HEK293, 100 μM, 12 hours, MTT 1.5 hours, 570 nm
readout: 100 μM absorbance
Give the figure only, with no unit attached.

Consider the following illustrative entries.
NC(=O)c1ccc[n+]([C@@H]2O[C@H](CO)[C@@H](O)C2(F)F)c1 [gem-diF-NR]	1.679
NC(=O)c1ccc[n+]([C@@H]2O[C@H](CO)C(O)C2F)c1 (some centres unmarked) [ara-F-NR]	1.5325
NC(=O)c1ccc[n+]([C@@H]2O[C@H](CO)C(O)[C@@H]2F)c1 (some centres unmarked) [ribo-F-NR]	0.019
NC(=O)c1ccc[n+]([C@@H]2O[C@H](COP(=O)([O-])OP(=O)(O)OC[C@H]3O[C@@H](n4cnc5c(N)ncnc54)[C@H](O)[C@@H]3O)[C@@H](O)[C@@H]2F)c1 [ara-F-NAD, 2′-deoxy-2′-fluoro-arabino-NAD^+]	1.523

Okay, next one:
Returns the measured 100 μM absorbance for the input molecule. Input: NC(=O)c1ccc[n+]([C@@H]2O[C@H](COP(=O)([O-])O)C(O)C2F)c1 (some centres unmarked) [ribo-F-NMN] 1.2275
